# protocolDetails: chemical genetic growth profiling, strain panel (AID 1159580);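 note: tested at 20 µM; growth read once vehicle control cultures reached saturation at 30 °C; 1 = growth at the plate median or of vehicle wells; lower values mean less growth of the strain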
# conditionContext: S. cerevisiae deletion strains, growth OD, locus YMR205C, strain PFK2, hits give low values
Among all 5,500 compounds or so, about 2,000 (36%) were called active. Another 18% or so got no clear call; they are omitted. This is one part of the list.
# if measured normalized growth < 1: rule met  # else: rule not met

> print(dat)
                                   compound   answerlabel
1  C/C=C(\C)C(=O)O[C@@H]1c2c(ccc3ccc(=O)oc23)OC(C)(C)[C@@H]1OC(C)=O      rule met
2  CC(=O)O[C@@H]1c2c(ccc3ccc(=O)oc23)OC(C)(C)[C@@H]1OC(=O)CC(C)C      rule met
3  C[C@@H](CO)NC(=O)C1C=C2c3cccc4[nH]cc(c34)C[C@H]2N(C)C1 (stereo not given in full)  rule not met

====

# protocolDetails: chemical genetic growth profiling, strain panel (AID 1159580)
# conditionContext: S. cerevisiae deletion strains, growth OD, locus YCL011C, strain gbp2, hits give low values
Out of some 5,500 compounds screened, about 2,000 (36%) were called active. Inconclusive results (about 18%) are left out. The list shows a part of the results.

compound	normalized growth
COC(=O)N/N=C\c1c[n+]([O-])c2ccccc2[n+]1[O-]	0.992
O=S(=O)(O)O	0.965
Cc1c(C(N)=O)cc([N+](=O)[O-])cc1[N+](=O)[O-]	1.03
CCC(=O)NCC[C@@H]1CCc2ccc3c(c21)CCO3	1
C[C@@H]1CCC2[C@](C)(CO)[C@@H](O)CC[C@]2(C)[C@@]12CC[C@@](CO)(CCO)O2 (stereo partly specified)	0.994
NC(=O)c1cc([N+](=O)[O-])cc([N+](=O)[O-])c1	1.02
COC(=O)C[C@H]1C(C)(C)[C@@H](O)[C@@H]2CC3=C4CC(O)O[C@@H](c5ccoc5)[C@]4(C)CCC3[C@@]1(C)C2=O (stereo partly specified)	1
NC(=O)c1ccc([N+](=O)[O-])cc1Cl	0.929
COP(N)(=O)SC (stereo unspecified)	1
CC(C)C[C@@H](NC(=O)OCC1c2ccccc2-c2ccccc21)C(=O)O	0.993
COC1C(O)C(O[C@H]2CC[C@]3(C=O)C4C(CC[C@]3(O)C2)[C@@]2(O)CC[C@H](C3=CC(=O)OC3)[C@@]2(C)C[C@H]4OC(C)=O)OC(C)C1OC(C)=O (stereo partly specified)	1

====

Below is a list of entries, each paired with its recorded normalized growth value.
# protocolDetails: chemical genetic growth profiling, strain panel (AID 1159580)
# conditionContext: S. cerevisiae deletion strains, growth OD, locus YJL154C, strain vps35, hits give low values
The whole screen tested about 5,500 compounds, of which about 2,000 (36%) were called active. Inconclusive results (about 18%) are left out. Some of the results follow.
measurementType: normalized growth

compound	experimentalResult
C[C@H]1[C@H](C)CC[C@]2(C(=O)O)CC[C@]3(C)C(=CCC4[C@@]5(C)C[C@@H](O)[C@H](O)[C@@](C)(CO)C5[C@H](O)C[C@]43C)[C@H]12 (some centres undefined)	0.968
NCC(O)CC(=O)O (centres undefined)	0.981
O=C(O)CCc1nc(-c2ccccc2)c(-c2ccccc2)o1	0.966
C[C@H]1[C@H](C)CC[C@]2(C(=O)O)CC[C@]3(C)C(=CCC4[C@@]5(C)C[C@@H](O)[C@H](O)[C@@](C)(CO)C5CC[C@]43C)[C@H]12 (some centres undefined)	1.03

====

# protocolDetails: chemical genetic growth profiling, strain panel (AID 1159580);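 note: tested at 20 µM; growth read once vehicle control cultures reached saturation at 30 °C; 1 = growth at the plate median or of vehicle wells; lower values mean less growth of the strain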
# conditionContext: S. cerevisiae deletion strains, growth OD, locus YJL129C, strain trk1, hits give low values
Hit rate of the full screen: of about 5,500 compounds, about 2,000 (36%) were called active. Not shown: some 18% with an inconclusive outcome. This is one part of the list.
# if measured normalized growth < 1: Yes  # else: No

smilesCode	answerLabel
COc1c(O)cc2c(c1O)[C@H]1O[C@H](CO)[C@@H](O)[C@H](O)[C@@H]1OC2=O	No
OC1(c2ccc(Cl)c(C(F)(F)F)c2)CCN(CCCC(c2ccc(F)cc2)c2ccc(F)cc2)CC1	Yes

====

# protocolDetails: chemical genetic growth profiling, strain panel (AID 1159580);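 note: tested at 20 µM; growth read once vehicle control cultures reached saturation at 30 °C; 1 = growth at the plate median or of vehicle wells; lower values mean less growth of the strain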
# conditionContext: S. cerevisiae deletion strains, growth OD, locus YPL241C, strain CIN2
Among all 5,500 compounds or so, about 2,000 (36%) were called active. Another 18% or so got no clear call; they are omitted. Rule as the data show it: active = normalized growth mostly below about 0.91 (no sharp cut-off); inconclusive = no clear call, values can overlap the other calls; inactive = mostly above about 0.92. The list shows a part of the results.
Outcome codes: active, inactive

> print(dat)
                                    molecule  answerlabel
 1  CCC(=O)O[C@]1(C(=O)CCl)[C@@H](C)CC2C3CCC4=CC(=O)C=C[C@]4(C)[C@@]3(F)[C@@H](O)C[C@@]21C (stereo not given in full)     inactive
 2                        O=C(O)c1cc(O)ccc1O     inactive
 3                                     NCCCN     inactive
 4       CN1CCCC1c1cccnc1 (stereo not given)     inactive
 5               COC(=O)c1cccnc1Sc1ccc(C)cc1       active
 6  O=C(Nc1ccccc1)N1CCN(C(c2ccccc2)c2ccccc2)CC1     inactive
 7             Nc1ccc(S(=O)(=O)Nc2ncccn2)cc1     inactive
 8  N#CC(=C(\N)Sc1ccccc1N)/C(C#N)=C(/N)Sc1ccccc1N     inactive
 9  CCC(=O)OCC(=O)C1(OC(=O)CC)C(C)CC2C3CCC4=CC(=O)C=CC4(C)C3(Cl)C(O)CC21C (stereo not given)     inactive
10         Cc1ccc(Sc2ncccc2C(=O)NCC(=O)O)cc1     inactive
11                    N#Cc1c(Cl)cccc1N1CCCC1       active
12           COc1ccc(OC)c(CNC(=O)Cc2cccs2)c1     inactive
13         O=C1C(c2ccc(Br)cc2)=C(O)c2ccccc21     inactive
14  N#Cc1c(Cl)cccc1N1CCC(C(=O)NC(=O)Nc2ccc(Cl)cc2)CC1     inactive
15      CCSc1ncccc1C(=O)N[C@@H](CCSC)C(=O)OC     inactive
16                CSc1cc(C(F)(F)F)cc(SC)c1SC     inactive
17  CCOC(=O)CC(SP(=S)(OC)OC)C(=O)OCC (stereo not given)     inactive
18  Nc1nc(/C(=C/CC(=O)O)C(=O)N[C@@H]2C(=O)N3C(C(=O)O)=CCS[C@H]23)cs1     inactive
19          COc1cccc2c1CCC1=CC(=O)CC[C@@]12C     inactive
20  CC(C)(C)c1ccc(Oc2ncccc2NC(=O)c2ccccc2C(F)(F)F)cc1     inactive
21                 Cc1ccc(C(C)C)c(O)c1C(=O)O     inactive
22  CCOC(=O)C1C(=O)C=C(c2cccs2)CC1c1ccc(OC)c(OC)c1Cl (stereo not given)     inactive
23        CN(C)CC[C@H](c1ccc(Cl)cc1)c1ccccn1     inactive
24                         N#Cc1c(Cl)cccc1Cl     inactive
25                  NNC(=O)c1cccnc1Oc1ccccc1     inactive

====

# protocolDetails: chemical genetic growth profiling, strain panel (AID 1159580);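 note: tested at 20 µM; growth read once vehicle control cultures reached saturation at 30 °C; 1 = growth at the plate median or of vehicle wells; lower values mean less growth of the strain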
# conditionContext: S. cerevisiae deletion strains, growth OD, locus YJL095W, strain BCK1 (second series), hits give low values
In all, about 5,500 compounds went through this assay and about 2,000 (36%) were called active. Inconclusive results (about 18%) are left out. The list shows a part of the results.
Below is a list of entries, each paired with its recorded normalized growth value.

compound	normalized growth
CCC(=O)NCC[C@@H]1CCc2ccc3c(c21)CCO3	1.01
Cc1cc(N)c2ccccc2[n+]1CCCCCCCCCC[n+]1c(C)cc(N)c2ccccc21	0.0654
NCCCN	0.984
C[C@@H]1CC[C@@]23CCC4(C)[C@@](C=CC5[C@@]6(C)CC[C@H](O)C(C)(C)C6CC[C@]54C)(OC2=O)C3[C@H]1C (stereo partly drawn)	1.03
CC[C@@]1(O)C(=O)OCc2c1cc1n(c2=O)Cc2cc3ccccc3nc2-1	0.855
CC1(C)C(=O)CC[C@@]2(C)C1C[C@@H](O)[C@@]1(C)C3=CC(=O)O[C@@H](c4ccoc4)[C@]3(C)CCC21 (stereo partly drawn)	1.01
NS(=O)(=O)c1cc2c(cc1C(F)(F)F)NC(Cc1ccccc1)NS2(=O)=O (stereo not drawn)	0.997
C[C@@H]1O[C@@H](O[C@H]2CC[C@]3(C=O)C4CC[C@]5(C)[C@@H](C6=CC(=O)OC6)CC[C@]5(O)C4CC[C@]3(O)C2)[C@H](O)[C@H](O)[C@H]1O (stereo partly drawn)	0.998
CC(=O)OCC(=O)[C@@]1(O)CCC2C3C[C@H](C)C4=CC(=O)C=CC4(C)C3[C@@H](O)CC21C (stereo partly drawn)	1.01
COc1ccc(-c2cc(=O)c3c(O)cc(O)cc3o2)cc1	0.998
COc1ccc(-c2cc(=O)c3c(OC)c(OC)c(OC)c(OC)c3o2)cc1OC	0.992
CO[C@H]1[C@@H](O)[C@@H](C)O[C@H](O[C@H]2CCC3(C)C4CCC5(C)[C@@H](C6=CC(=O)OC6)CC[C@]5(O)[C@@H]4CC[C@]3(O)C2)[C@@H]1O (stereo partly drawn)	1.02
C[C@@H]1CC[C@@]23CCC4(C)[C@@](C=CC5[C@@]6(C)CCC(=O)C(C)(C)C6CC[C@]54C)(OC2=O)C3[C@H]1C (stereo partly drawn)	1
COc1cc(-c2cc(=O)c3c(O)c(OC)c(OC)c(OC)c3o2)cc(OC)c1OC	1.01
CC(C)C[C@@H](NC(=O)OCC1c2ccccc2-c2ccccc21)C(=O)O	0.999
COC(=O)[C@H]1[C@H]2C[C@H]3c4[nH]c5cc(OC)ccc5c4CCN3C[C@H]2C[C@@H](OC(=O)c2cc(OC)c(OC)c(OC)c2)[C@@H]1OC	1.01
COc1ccc(-c2cc(=O)c3c(O)c(OC)c(OC)c(OC)c3o2)cc1OC	0.992
COC1=CC(=O)C=C(OC)C1=O	0.996

Ref: PubChem BioAssay AID1159580
